B1: CAMK2D (parent)
chain: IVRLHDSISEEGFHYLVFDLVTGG

# Variants of: B1
# procedureSummary: protein stability index of a GFP-peptide fusion (GPS, HEK-293T) (PSI 1-6); higher = more stable;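 note: lentivirally expressed fusions sorted by FACS into six bins by GFP to DsRed ratio, PSI derived from sequencing read proportions per bin multiplied by bin number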
# testContext: c terminus: a fixed tail appended
endpointLabel: protein stability index
// no unit string in output, number only

{"sequenceInput": "IVRLHDSINEEGFHYLVFDLVTGG", "protein stability index": 2.94}
{"sequenceInput": "IVRLHDSISEEGFHYLVFDLVTGP", "protein stability index": 3.4}
{"sequenceInput": "IVRLHDSISEEGFHYLNFDLVTGG", "protein stability index": 1.85}
{"sequenceInput": "IVRNHDSISEEGFHYLVFDLVTGG", "protein stability index": 1.87}
{"sequenceInput": "IVRLHDHISEEGFHYLVFDLVTGG", "protein stability index": 3.68}
{"sequenceInput": "IVRLHDSISEEGPHYLVFDLVTGG", "protein stability index": 1.08}

Prompt: Find the recorded protein stability index belonging to IVRLHDSISEEGFHYLVFDLVMGG and report it.
Completion: 2.02

Prompt: Find the recorded protein stability index belonging to IVRLHDSISEEGNHYLVFDLVTGG and report it.
Completion: 2.2

meta.source: the supplement of paper PMC10567573
